# test_system: GLP-1 receptor (UniProt P43220 24-463, limits assumed)
# test_protocol: cell-based or functional assay
No end group written: not given here.
Items are presented alongside their recorded EC50.
Response body: numeric value in nM, unit text excluded.

Data request, read-out EC50, for HSQGTFTSDYSKYLDERRAKDFVQWLMDGGPSSGAPPPS-NH2 [E16K20-MDGG30 PSSGAPPPS (SEQ ID NO: 526)] 0.02

One more binder: HSQGTFTSDYSKYLDSRRAQDFVQWLMKGGPSSGAPPPS-NH2 [MKGG30 PSSGAPPPS (SEQ ID NO: 523)] 0.8

meta.source: patent US20120172295A1
